target or system: Sodium- and chloride-dependent glycine transporter 2 (Homo sapiens, UniProt Q9Y345)
Sequence (Q9Y345 whole entry): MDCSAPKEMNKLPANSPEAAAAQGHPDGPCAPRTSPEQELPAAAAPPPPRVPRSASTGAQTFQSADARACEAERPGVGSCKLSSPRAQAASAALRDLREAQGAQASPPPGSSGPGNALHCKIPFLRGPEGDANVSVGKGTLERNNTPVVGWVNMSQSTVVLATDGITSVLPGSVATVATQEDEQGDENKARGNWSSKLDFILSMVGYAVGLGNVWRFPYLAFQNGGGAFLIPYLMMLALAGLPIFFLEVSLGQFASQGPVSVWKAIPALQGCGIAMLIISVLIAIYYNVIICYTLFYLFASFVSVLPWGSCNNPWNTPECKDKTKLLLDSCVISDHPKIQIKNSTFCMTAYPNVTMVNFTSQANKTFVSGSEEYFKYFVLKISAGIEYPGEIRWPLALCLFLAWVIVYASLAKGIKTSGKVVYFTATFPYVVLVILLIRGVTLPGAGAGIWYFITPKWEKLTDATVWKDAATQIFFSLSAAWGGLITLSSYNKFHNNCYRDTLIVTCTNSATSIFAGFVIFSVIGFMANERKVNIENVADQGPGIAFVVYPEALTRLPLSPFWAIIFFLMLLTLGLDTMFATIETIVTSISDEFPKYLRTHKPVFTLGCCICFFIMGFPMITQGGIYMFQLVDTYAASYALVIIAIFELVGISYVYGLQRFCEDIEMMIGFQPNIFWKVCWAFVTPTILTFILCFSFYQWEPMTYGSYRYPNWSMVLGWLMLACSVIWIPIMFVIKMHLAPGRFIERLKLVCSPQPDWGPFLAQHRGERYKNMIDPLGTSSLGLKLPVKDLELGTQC
assay protocol: Inhibition of [3H]glycine uptake at GlyT2
observable: EC50 (µM)

# molecule, value operator, experimental result
measured = [
    ("O=C1NC[C@H](c2ccc(F)cc2)C12CCN([C@@H]1CCCC[C@@H]1c1ccc(F)cc1)CC2", "=", 39.9),
    ("O=C1NC[C@H](c2ccc(F)cc2)C12CCN([C@H]1CCCC[C@H]1c1ccc(F)cc1)CC2", "=", 8.36),
    ("O=C1NC[C@@H](c2ccc(F)cc2)C12CCN([C@@H]1CCCC[C@@H]1c1ccc(F)cc1)CC2", "=", 16.7),
    ("O=C1NC[C@@H](c2ccc(F)cc2)C12CCN([C@H]1CCCC[C@H]1c1ccc(F)cc1)CC2", ">", 30),
    ("O=C1NC[C@@H](c2ccccc2)C12CCN([C@H]1CCCC[C@H]1c1ccccc1)CC2", "=", 39.6),
    ("O=C1NCC(c2ccccc2)C12CCN(C1CCCCC1c1ccccc1)CC2 (stereo unspecified)", "=", 25),
]

----------
Entries annotated with measured EC50
target or system: UniProtKB P48067
assay protocol: Inhibition of [3H]glycine uptake at GlyT1

# molecule, EC50
measured = [
    ("O=C1NC[C@H](c2ccc(F)cc2)C12CCN([C@@H]1CCCC[C@@H]1c1ccc(F)cc1)CC2", "36 nM"),
    ("O=C1NCC(c2ccccc2)C12CCN(C1CCCCC1c1ccc(F)cc1)CC2 (single isomer, unassigned; diastereomer 1)", "167 nM"),
    ("O=C1NCC(c2ccc(F)cc2)C12CCN(C1CCCCC1c1ccc(C(F)(F)F)cc1)CC2 (single isomer, unassigned; diastereomer 1)", "2330 nM"),
    ("O=C1NCC(c2ccc(F)cc2)C12CCN(C1CCCCC1c1ccc(C(F)(F)F)cc1)CC2 (single isomer, unassigned; diastereomer 2)", "953 nM"),
]

----------
target or system: Sodium- and chloride-dependent glycine transporter 1 (Homo sapiens, UniProt P48067)
Sequence (P48067 whole entry): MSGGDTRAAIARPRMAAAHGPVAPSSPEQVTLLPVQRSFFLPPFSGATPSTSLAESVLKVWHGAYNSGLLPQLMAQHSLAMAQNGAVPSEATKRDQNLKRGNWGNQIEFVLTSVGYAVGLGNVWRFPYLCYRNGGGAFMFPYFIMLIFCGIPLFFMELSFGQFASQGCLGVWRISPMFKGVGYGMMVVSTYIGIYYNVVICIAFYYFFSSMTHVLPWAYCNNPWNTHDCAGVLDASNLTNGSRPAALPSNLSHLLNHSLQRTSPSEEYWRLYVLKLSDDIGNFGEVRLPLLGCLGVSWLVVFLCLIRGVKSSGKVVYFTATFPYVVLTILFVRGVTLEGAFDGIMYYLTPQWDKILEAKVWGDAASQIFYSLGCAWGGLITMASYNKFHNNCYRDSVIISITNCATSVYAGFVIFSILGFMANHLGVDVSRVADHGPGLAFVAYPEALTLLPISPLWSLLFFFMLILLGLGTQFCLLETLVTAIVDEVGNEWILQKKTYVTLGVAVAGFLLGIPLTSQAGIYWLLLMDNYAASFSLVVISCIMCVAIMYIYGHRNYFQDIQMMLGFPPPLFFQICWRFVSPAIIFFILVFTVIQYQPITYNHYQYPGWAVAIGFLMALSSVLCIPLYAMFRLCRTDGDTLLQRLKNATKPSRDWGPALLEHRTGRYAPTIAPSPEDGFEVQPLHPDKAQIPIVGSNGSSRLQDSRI
assay protocol: Inhibition of [3H]glycine uptake at GlyT1
pEC50: −log10 of the molar value.
Entries annotated with measured pEC50
observable: pEC50

# compound, observable, experimental result
measured = [
    ("O=C1NCC(c2ccccc2)C12CCN(C1CCCCC1c1ccccc1)CC2 (stereo unspecified)", "pEC50", 6.63),
    ("O=C1NC[C@H](c2ccc(F)cc2)C12CCN([C@H]1CCCC[C@H]1c1ccc(F)cc1)CC2", "pEC50", 5.89),
    ("O=C1NCC(c2ccc(Cl)c(Cl)c2)C12CCN(C1CCCCC1c1ccc(F)cc1)CC2 (single isomer, unassigned; diastereomer 1)", "pEC50", 6.57),
    ("O=C1NC[C@@H](c2ccc(F)cc2)C12CCN([C@@H]1CCCC[C@@H]1c1ccc(F)cc1)CC2", "pEC50", 7.37),
    ("O=C1NCC(c2ccc(F)cc2)C12CCN(C1CCCCC1c1ccc(C(F)(F)F)cc1)CC2 (stereo in doubt)", "pEC50", 7.04),
    ("COc1ccc(C2CNC(=O)C23CCN(C2CCCCC2c2ccc(C)cc2)CC3)cc1 (single isomer, unassigned; diastereomer 2)", "pEC50", 4.78),
    ("O=C1NC[C@H](c2ccccc2)C12CCN([C@H]1CCCC[C@H]1c1ccccc1)CC2", "pEC50", 7.21),
    ("O=C1NCC(c2ccccc2)C12CCN(C1CCCCC1c1ccc(F)cc1)CC2 (single isomer, unassigned; diastereomer 2)", "pEC50", 7.32),
    ("O=C1NCC(c2ccc(F)cc2)C12CCN(C1CCCCC1c1ccc(C(F)(F)F)cc1)CC2 (single isomer, unassigned; diastereomer 3)", "pEC50", 6.89),
    ("O=C1NC[C@H](c2ccccc2)C12CCN([C@@H]1CCCC[C@@H]1c1ccccc1)CC2", "pEC50", 5.54),
    ("O=C1NC[C@@H](c2ccccc2)C12CCN([C@@H]1CCCC[C@@H]1c1ccccc1)CC2", "pEC50", 5.55),
    ("O=C1NC[C@@H](c2ccc(F)cc2)C12CCN([C@H]1CCCC[C@H]1c1ccc(F)cc1)CC2", "pEC50", 5.97),
    ("COc1ccc(C2CNC(=O)C23CCN(C2CCCCC2c2ccc(F)cc2)CC3)cc1 (stereo unspecified)", "pEC50", 6.95),
    ("O=C1NC[C@@H](c2ccccc2)C12CCN([C@H]1CCCC[C@H]1c1ccccc1)CC2", "pEC50", 6.61),
    ("COc1ccc(C2CNC(=O)C23CCN(C2CCCCC2c2ccc(C)cc2)CC3)cc1 (single isomer, unassigned; diastereomer 1)", "pEC50", 5.95),
    ("O=C1NCC(c2ccc(Cl)c(Cl)c2)C12CCN(C1CCCCC1c1ccc(F)cc1)CC2 (single isomer, unassigned; diastereomer 2)", "pEC50", 5.66),
]
